Data provenance is ChEMBL document CHEMBL4033647.

- study target: UniProtKB P30304
- Sequence (P30304 whole entry): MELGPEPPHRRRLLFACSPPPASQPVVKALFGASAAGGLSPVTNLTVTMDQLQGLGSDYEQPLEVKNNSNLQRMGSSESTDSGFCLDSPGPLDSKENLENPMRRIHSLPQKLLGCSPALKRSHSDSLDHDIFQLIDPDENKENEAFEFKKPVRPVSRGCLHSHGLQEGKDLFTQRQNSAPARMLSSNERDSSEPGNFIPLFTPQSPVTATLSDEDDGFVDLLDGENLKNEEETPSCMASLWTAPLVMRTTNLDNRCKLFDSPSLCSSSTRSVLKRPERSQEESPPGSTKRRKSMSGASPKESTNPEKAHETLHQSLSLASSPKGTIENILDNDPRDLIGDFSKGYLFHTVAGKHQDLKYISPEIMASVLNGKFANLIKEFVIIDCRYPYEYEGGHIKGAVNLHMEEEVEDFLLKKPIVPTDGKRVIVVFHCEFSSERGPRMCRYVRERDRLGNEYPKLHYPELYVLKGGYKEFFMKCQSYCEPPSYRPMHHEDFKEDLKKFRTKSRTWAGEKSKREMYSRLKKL
- experiment description: Inhibition of recombinant human full length GST-tagged CDC25A expressed in Escherichia coli BL21-DE3 pLysS using 3-O-methylfluorescein phosphate as substrate after 2 hrs by fluorimetric analysis
pIC50: −log10 of the molar value.
readout kind: pIC50

>>> reported("O=C1C=CC(=O)c2c1ccc1c2c(=O)oc2cc(OCc3ccccc3)ccc21")
5.51
>>> reported("O=C1C=CC(=O)c2c1ccc1c2c(=O)oc2cc(F)ccc21")
5.66
>>> reported("COc1ccc2c(c1)oc(=O)c1c3c(ccc12)C(=O)C=CC3=O")
5.54
>>> reported("Cc1ccc2c(c1)oc(=O)c1c3c(ccc12)C(=O)C=CC3=O")
5.54
>>> reported("O=C1C=CC(=O)c2c1ccc1c2c(=O)oc2ccc(F)cc21")
5.46
>>> reported("O=C1C=CC(=O)c2c1ccc1c2c(=O)[nH]c2cc(F)ccc21")
5.55
>>> reported("O=C1C=CC(=O)c2c1ccc1c2c(=O)[nH]c2cc(Cl)ccc21")
5.39
>>> reported("O=C1C=CC(=O)c2c1ccc1c2c(=O)[nH]c2c3ccccc3ccc12")
5.49
>>> reported("O=C1C=CC(=O)c2c1ccc1c2c(=O)oc2ccccc21")
5.24
>>> reported("O=C1C=CC(=O)c2c1ccc1c2c(=O)oc2cc(Cl)ccc21")
5.79
>>> reported("O=C1C=CC(=O)c2c1ccc1c2c(=O)[nH]c2ccc(F)cc21")
5.47
>>> reported("Cn1c(=O)c2c3c(ccc2c2ccccc21)C(=O)C=CC3=O")
4.89
